Entries and their GLP1 secretion stimulation
- experimentSummary: glucagon-like peptide 1 release enhancers, primary assay, NCI-H716 cell line, NPC library (AID 1117341); further: reference of the scale not given here
- experimentalParameters: NCI-H716 cells, at 10 µM, hits give high values
The source made the active and inactive calls.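 How the source made its calls: active means compound raises GLP1 secretion from the human gut endocrine cells, with no numeric limit stated; inactive means the rest.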

Use the examples below as a reference point.
>>> print(df.to_string())
                                   molecule    reportedresult
0    CC(CC=O)CCCC(C)(C)O (stereo not drawn)   3.1% (inactive)
1  NC(=O)n1c(O)c(C(=O)c2cccs2)c2cc(Cl)ccc21  -0.5% (inactive)

(Q) # lookup: GLP1 secretion stimulation of N[C@@H](CC(=O)O)C(=O)O
(A) -0.5% (inactive)
